# Experimental setup: in n-hexadecane, 303.2 K
Experimental readout: solubility (mole fraction)
Number only, no unit.

For the molecule shown here, C=C(C)[C@@H]1CC[C@]2(CO)CC[C@]3(C)[C@H](CC[C@@H]4[C@@]5(C)CC[C@H](O)C(C)(C)[C@@H]5CC[C@]43C)[C@@H]12 , give the reported solubility (mole fraction).
5.7e-05

###

# Experimental setup: in DMF, 313.2 K
Experimental readout: solubility (mole fraction)
Number only, no unit.

For the molecule shown here, C=C(C)[C@@H]1CC[C@]2(CO)CC[C@]3(C)[C@H](CC[C@@H]4[C@@]5(C)CC[C@H](O)C(C)(C)[C@@H]5CC[C@]43C)[C@@H]12 , give the reported solubility (mole fraction).
0.00368

###

# Experimental setup: in n-octanol, 328.2 K
Experimental readout: solubility (mole fraction)

For the compound shown here, C=C(C)[C@@H]1CC[C@]2(CO)CC[C@]3(C)[C@H](CC[C@@H]4[C@@]5(C)CC[C@H](O)C(C)(C)[C@@H]5CC[C@]43C)[C@@H]12 , give the reported solubility (mole fraction).
0.00341

###

# Experimental setup: in n-dodecane, 298.2 K
Experimental readout: solubility (mole fraction)
Number only, no unit.

For the compound shown here, C=C(C)[C@@H]1CC[C@]2(CO)CC[C@]3(C)[C@H](CC[C@@H]4[C@@]5(C)CC[C@H](O)C(C)(C)[C@@H]5CC[C@]43C)[C@@H]12 , give the reported solubility (mole fraction).
1.6e-05

###

# Experimental setup: in n-dodecane, 303.2 K
Experimental readout: solubility (mole fraction)
Number only, no unit.

For the compound shown here, C=C(C)[C@@H]1CC[C@]2(CO)CC[C@]3(C)[C@H](CC[C@@H]4[C@@]5(C)CC[C@H](O)C(C)(C)[C@@H]5CC[C@]43C)[C@@H]12 , give the reported solubility (mole fraction).
1.9e-05

###

# Experimental setup: in n-octanol, 323.2 K
Experimental readout: solubility (mole fraction)

For the compound shown here, C=C(C)[C@@H]1CC[C@]2(CO)CC[C@]3(C)[C@H](CC[C@@H]4[C@@]5(C)CC[C@H](O)C(C)(C)[C@@H]5CC[C@]43C)[C@@H]12 , give the reported solubility (mole fraction).
0.00269

###

# Experimental setup: in NMP, 323.2 K
Experimental readout: solubility (mole fraction)

For the molecule shown here, C=C(C)[C@@H]1CC[C@]2(CO)CC[C@]3(C)[C@H](CC[C@@H]4[C@@]5(C)CC[C@H](O)C(C)(C)[C@@H]5CC[C@]43C)[C@@H]12 , give the reported solubility (mole fraction).
0.00676

###

# Experimental setup: in n-dodecane, 313.2 K
Experimental readout: solubility (mole fraction)

For the compound shown here, C=C(C)[C@@H]1CC[C@]2(CO)CC[C@]3(C)[C@H](CC[C@@H]4[C@@]5(C)CC[C@H](O)C(C)(C)[C@@H]5CC[C@]43C)[C@@H]12 , give the reported solubility (mole fraction).
2.5e-05

###

# Experimental setup: in n-octanol, 298.2 K
Experimental readout: solubility (mole fraction)
Number only, no unit.

For the compound shown here, C=C(C)[C@@H]1CC[C@]2(CO)CC[C@]3(C)[C@H](CC[C@@H]4[C@@]5(C)CC[C@H](O)C(C)(C)[C@@H]5CC[C@]43C)[C@@H]12 , give the reported solubility (mole fraction).
0.00162
